meta.source: patent US10975037B2

Kindly supply the reported Kd values for the records listed here.
target: human RORγt ligand binding domain (RORγt LBD) (Homo sapiens (Human), UniProt P51449); assay: RORγt ThermoFluor® assay (thermal shift binding); conditions: read-out: ThermoFluor® Assay, Kd
Sequence (P51449 other isoform, or with tags, fused parts or gaps): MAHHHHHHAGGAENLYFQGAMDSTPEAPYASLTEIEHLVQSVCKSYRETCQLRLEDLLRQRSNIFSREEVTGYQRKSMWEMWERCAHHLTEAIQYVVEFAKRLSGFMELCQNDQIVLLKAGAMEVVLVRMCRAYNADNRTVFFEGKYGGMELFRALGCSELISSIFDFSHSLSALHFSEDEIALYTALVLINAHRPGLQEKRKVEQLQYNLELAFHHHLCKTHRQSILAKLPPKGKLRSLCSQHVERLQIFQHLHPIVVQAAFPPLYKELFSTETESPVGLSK
Number first, unit second.

Give Kd for CCn1nc(C(=O)NC[C@H]2CC[C@H](S(C)(=O)=O)CC2)c(C#N)c1-c1ccc(CC(C)C(F)(F)F)cc1OC (stereo partly drawn) [Example 123] 9.6 nM

Recall and state the measured Kd for CCn1nc(C(=O)NC[C@]2(O)CC[C@@H](S(C)(=O)=O)CC2)c(Cl)c1-c1ccc(C(O)(C(F)(F)F)C(F)(F)F)cc1OC(F)F [Example 117] . 0.27 nM

Identify measured Kd associated with CCn1nc(C(=O)NC[C@H]2CC[C@H](S(C)(=O)=O)CC2)c(Cl)c1-c1ccc(N[C@H](C)C(F)(F)F)cc1OC(C)C [Example 207] 10 nM

Please report Kd for the following compound: CCn1nc(C(=O)NC[C@H]2CC[C@H](S(C)(=O)=O)CC2)c(Cl)c1-c1ccc(CCC(F)(F)F)cc1OC [Example 38] 3.3 nM

Identify the reported Kd for the following entry. CCn1nc(C(=O)NC[C@H]2CC[C@H](S(C)(=O)=O)CC2)c(C(C)C)c1-c1ccc(N[C@H](C)C(F)(F)F)cc1OC [Example 131] 33 nM

Give Kd for the following compound: CCn1nc(C(=O)NC[C@]2(O)CC[C@@H](S(C)(=O)=O)CC2)c(C)c1-c1ccc(CCC(F)(F)F)cc1OC [Example 225] 26 nM

====

Please respond with reported inhibition at 2 µM for every item in the list.
target: full-length human RORγt (Homo sapiens (Human), UniProt P51449); test: RORγt (full-length human) reporter assay, conditions A or B, HEK293T cells; assay type: cell-based; conditions: HEK-293T; 2 μM compound concentration; read-out: RORγt (FL) Reporter Assay A or B, % inhibition
Sequence (P51449 other isoform, or with tags, fused parts or gaps): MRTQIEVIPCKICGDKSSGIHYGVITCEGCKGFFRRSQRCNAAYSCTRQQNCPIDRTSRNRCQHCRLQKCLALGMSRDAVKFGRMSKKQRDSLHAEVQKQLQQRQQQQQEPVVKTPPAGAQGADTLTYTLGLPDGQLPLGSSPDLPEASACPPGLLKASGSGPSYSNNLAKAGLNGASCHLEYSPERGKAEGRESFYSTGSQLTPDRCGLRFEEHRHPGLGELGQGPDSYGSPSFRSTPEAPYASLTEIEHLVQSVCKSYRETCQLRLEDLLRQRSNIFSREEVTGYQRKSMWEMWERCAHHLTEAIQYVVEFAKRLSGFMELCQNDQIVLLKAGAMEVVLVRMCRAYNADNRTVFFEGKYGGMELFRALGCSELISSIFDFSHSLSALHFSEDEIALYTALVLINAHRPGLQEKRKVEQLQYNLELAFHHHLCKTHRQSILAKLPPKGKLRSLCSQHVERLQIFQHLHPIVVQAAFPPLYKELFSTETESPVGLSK
A number alone suffices; assume %.

State its inhibition at 2 µM for this compound: COCCn1nc(C(=O)NC[C@]2(O)CC[C@@H](S(C)(=O)=O)CC2)c(C)c1-c1ccc(CC(C)(C)C(F)(F)F)cc1OC(F)F 95

Consider the compound CCn1nc(C(=O)NC[C@H]2CC[C@H](S(C)(=O)=O)CC2)c(Cl)c1-c1ccc(OC[C@@H]2CC2(F)F)cc1OC (single isomer, unassigned) and give its recorded inhibition at 2 µM. 77

Output inhibition at 2 µM of CCn1nc(C(=O)NC[C@]2(O)CC[C@@H](S(C)(=O)=O)CC2)c(Cl)c1-c1ccc(CCCC(F)(F)F)cc1OC(F)F 96

// Input: CCOC(=O)[C@]1(CNC(=O)c2nn(CC)c(-c3ccc(CC(C)(C)C(F)(F)F)cc3OC(F)F)c2Cl)CC[C@H](S(C)(=O)=O)CC1 . Output its inhibition at 2 µM only. 103

Identify the reported inhibition at 2 µM for the following entry. CCn1nc(C(=O)NC[C@@]2(O)CC[C@@H](S(C)(=O)=O)C[C@@H]2O)c(Cl)c1-c1ccc(CC(C)(C)C(F)(F)F)cc1OC(F)F (single isomer, unassigned) 96

Assign inhibition at 2 µM to the following record: COCCn1nc(C(=O)NC[C@H]2CC[C@H](S(C)(=O)=O)CC2)c(Cl)c1-c1ccc(CC(C)(C)C(F)(F)F)cc1OC 92

Name the recorded inhibition at 2 µM of the item CCn1nc(C(=O)NC[C@H]2CC[C@H](S(C)(=O)=O)CC2)c(Cl)c1-c1ccc(N[C@H](C)C(F)(F)F)cc1C in your answer. 101

Read the entry CCn1nc(C(=O)NC[C@]2(O)CC[C@@H](S(C)(=O)=O)CC2)c(Cl)c1-c1ccc(C[C@@H](C)C(F)(F)F)cc1OC and write its reported inhibition at 2 µM. 101
